Could you please report measured IC50 for the items listed next?
Biological target: TEL-PDGFRβ fusion gene transfected cells (Ba/F3)
Sequence (P09619 33-1106 limits assumed, change not shown): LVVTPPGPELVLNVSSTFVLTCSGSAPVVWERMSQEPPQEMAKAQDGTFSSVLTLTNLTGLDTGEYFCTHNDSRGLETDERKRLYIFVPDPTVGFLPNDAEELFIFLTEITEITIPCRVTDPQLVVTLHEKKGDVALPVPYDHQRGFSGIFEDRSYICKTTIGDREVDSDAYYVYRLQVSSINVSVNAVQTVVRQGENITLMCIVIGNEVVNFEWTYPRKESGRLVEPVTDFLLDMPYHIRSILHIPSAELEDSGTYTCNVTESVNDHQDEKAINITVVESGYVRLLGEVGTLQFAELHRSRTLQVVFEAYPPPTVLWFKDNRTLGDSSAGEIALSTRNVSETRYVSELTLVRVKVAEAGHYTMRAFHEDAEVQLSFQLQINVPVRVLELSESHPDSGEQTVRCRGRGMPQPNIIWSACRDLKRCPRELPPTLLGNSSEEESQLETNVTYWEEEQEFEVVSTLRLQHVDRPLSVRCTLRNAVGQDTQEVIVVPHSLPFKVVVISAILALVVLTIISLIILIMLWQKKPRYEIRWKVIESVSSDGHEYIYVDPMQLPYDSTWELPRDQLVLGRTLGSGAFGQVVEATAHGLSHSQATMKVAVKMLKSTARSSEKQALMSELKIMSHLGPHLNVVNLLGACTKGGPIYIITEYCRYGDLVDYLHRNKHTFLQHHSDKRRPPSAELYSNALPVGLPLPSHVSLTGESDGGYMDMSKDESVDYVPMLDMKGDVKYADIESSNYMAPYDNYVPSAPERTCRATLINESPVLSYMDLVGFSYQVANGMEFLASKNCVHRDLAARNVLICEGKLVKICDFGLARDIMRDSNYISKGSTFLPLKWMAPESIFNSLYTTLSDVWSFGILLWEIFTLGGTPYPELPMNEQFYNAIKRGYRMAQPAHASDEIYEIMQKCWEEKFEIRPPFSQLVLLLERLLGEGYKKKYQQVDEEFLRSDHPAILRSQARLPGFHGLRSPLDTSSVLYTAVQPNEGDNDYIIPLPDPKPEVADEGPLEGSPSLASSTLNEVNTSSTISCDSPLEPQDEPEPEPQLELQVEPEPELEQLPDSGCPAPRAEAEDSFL
Assay: Suppression of proliferation of TEL-PDGFRβ fusion gene transfected Ba/F3 cells
Settings: TEL-PDGFRβ expressing Ba/F3 cells, 72 hours, final concentration 0.1 to 10,000 nM; read-out: PDGFR β/BaF3 proliferation inhibition (IC50)
Your answer is read as nM, so omit the unit and give the number.

In plain terms, Cc1ccc(C(=O)N[C@H]2CCCC[C@@H]2O)cc1NC(=O)c1cnc(NC2(C)CCC2)s1 has a documented IC50 of 4.6

In plain terms, Cc1ccc(C(=O)N[C@H]2CCCC[C@@H]2O)cc1N[C@@H](C)c1cncc(-c2ncccn2)c1 has a documented IC50 of 43

In plain terms, Cc1ccc(C(=O)N[C@H]2CCCC[C@@H]2O)cc1C#Cc1cncc(C2CC2)c1 has a documented IC50 of 5.2

In plain terms, Cc1ccc(C(=O)N[C@H]2CCCC[C@@H]2O)cc1NC(=O)c1cncc(/C=C/C2CC2)c1 has a documented IC50 of 3.9

----------
Target: TEL-KIT fusion gene transfected cells (Ba/F3)
Sequence (P10721 26-976 limits assumed, change not shown): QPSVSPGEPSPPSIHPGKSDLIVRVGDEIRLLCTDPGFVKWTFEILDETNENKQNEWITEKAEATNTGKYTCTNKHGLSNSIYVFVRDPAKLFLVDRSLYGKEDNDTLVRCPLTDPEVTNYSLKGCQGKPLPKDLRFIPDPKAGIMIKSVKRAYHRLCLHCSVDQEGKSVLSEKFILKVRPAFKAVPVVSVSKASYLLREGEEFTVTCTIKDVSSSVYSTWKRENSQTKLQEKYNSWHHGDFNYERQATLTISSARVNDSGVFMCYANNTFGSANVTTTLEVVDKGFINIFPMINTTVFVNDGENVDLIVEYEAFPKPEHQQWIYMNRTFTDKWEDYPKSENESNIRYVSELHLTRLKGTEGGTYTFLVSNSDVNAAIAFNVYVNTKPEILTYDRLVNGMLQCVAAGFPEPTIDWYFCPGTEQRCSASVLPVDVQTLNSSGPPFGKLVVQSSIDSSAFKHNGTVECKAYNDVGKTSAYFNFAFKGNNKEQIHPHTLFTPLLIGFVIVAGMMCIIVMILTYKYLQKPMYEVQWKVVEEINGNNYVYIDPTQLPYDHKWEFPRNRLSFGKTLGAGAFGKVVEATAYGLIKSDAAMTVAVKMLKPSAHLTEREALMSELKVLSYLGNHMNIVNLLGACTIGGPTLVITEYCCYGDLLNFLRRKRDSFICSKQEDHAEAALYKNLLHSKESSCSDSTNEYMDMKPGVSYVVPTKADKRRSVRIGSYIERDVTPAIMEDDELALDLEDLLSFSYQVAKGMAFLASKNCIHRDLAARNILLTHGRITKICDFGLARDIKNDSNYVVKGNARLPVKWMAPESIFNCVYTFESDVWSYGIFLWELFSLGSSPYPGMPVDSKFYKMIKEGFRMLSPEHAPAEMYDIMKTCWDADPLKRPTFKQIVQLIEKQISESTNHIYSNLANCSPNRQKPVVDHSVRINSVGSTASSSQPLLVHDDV
Assay: Suppression of proliferation of TEL-KIT fusion gene transfected Ba/F3 cells
Details: read-out: KIT/BaF3 proliferation inhibition (IC50); TEL-KIT expressing Ba/F3 cells, 72 hours, final concentration 0.1 to 10,000 nM
READOUT LABEL: IC50 (nM)
Your answer is read as nM, so omit the unit and give the number.

Considering Cc1ccc(C(=O)N[C@H]2CCCC[C@@H]2O)cc1NC(=O)c1cnc2sccn12 , its IC50 with TEL-KIT fusion gene transfected cells (Ba/F3) was recorded as 92

Considering Cc1ccc(C(=O)N[C@H]2CCCC[C@@H]2O)cc1NC(=O)c1cncc(N(C)C2CC2)c1 , its IC50 with TEL-KIT fusion gene transfected cells (Ba/F3) was recorded as 800

Considering O=C(N[C@H]1CCCC[C@@H]1O)c1ccc(Cl)c(C#Cc2cncc(Br)c2)c1 , its IC50 with TEL-KIT fusion gene transfected cells (Ba/F3) was recorded as 6900

Considering Cc1ccc(C(=O)N[C@H]2CCCC[C@@H]2O)cc1NCc1cncc(-c2cnccn2)c1 , its IC50 with TEL-KIT fusion gene transfected cells (Ba/F3) was recorded as 1700

Considering Cc1ccc(C(=O)N[C@H]2CCCC[C@@H]2O)cc1NC(=O)c1cncc(OC(C)C)c1 , its IC50 with TEL-KIT fusion gene transfected cells (Ba/F3) was recorded as 1900

Considering Cc1ccc(C(=O)N[C@H]2CCCC[C@@H]2O)cc1NCc1cncc(C#CC2CC2)c1 , its IC50 with TEL-KIT fusion gene transfected cells (Ba/F3) was recorded as 260

Considering Cc1ccc(C(=O)N[C@H]2CCCC[C@@H]2O)cc1NC(=O)c1cncc(-c2ccccc2F)c1 , its IC50 with TEL-KIT fusion gene transfected cells (Ba/F3) was recorded as 290

Considering Cc1ccc(C(=O)N[C@H]2CCCC[C@@H]2O)cc1NCc1cncc(-c2ncccn2)c1 , its IC50 with TEL-KIT fusion gene transfected cells (Ba/F3) was recorded as 1000

----------
Biological target: TEL-KIT fusion gene transfected cells (Ba/F3)
Assay: Suppression of proliferation of TEL-KIT fusion gene transfected Ba/F3 cells;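 note: viable cells quantified via formazan from tetrazolium reduction, inhibition scaled with 0.1% DMSO control as 0% and medium-only blank as 100%, IC50 from two-parameter logistic fit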
Settings: read-out: KIT/BaF3 proliferation inhibition (IC50); TEL-KIT expressing Ba/F3 cells, 72 hours, final concentration 0.1 to 10,000 nM
Could you please report measured pIC50 for the items listed next?
Scale: negative log10 of molar concentration, which is what pIC50 denotes.

In plain terms, Cc1ccc(C(=O)N[C@H]2CCCC[C@@H]2O)cc1NCc1cnc2ccccc2c1 has a documented pIC50 of 6.51

In plain terms, Cc1ccc(C(=O)N[C@H]2CCCC[C@@H]2O)cc1NC(=O)c1cnc(NCC2CC2)s1 has a documented pIC50 of 6.19

In plain terms, Cc1ccc(C(=O)N[C@H]2CCCC[C@@H]2O)cc1OCc1cncc(-c2ncccn2)c1 has a documented pIC50 of 5.92

In plain terms, Cc1ccc(C(=O)N[C@H](CO)c2ccccc2)cc1NC(=O)c1cncc(-c2ccccc2)c1 has a documented pIC50 of 6.77

Every entry's value here was drawn from patent US12509424B2.
